molecular target: human TLR8 (Homo sapiens, UniProt Q9NR97); assay: TLR8 inhibition reporter assay (HEK-Blue cells, SEAP reporter, R848 stimulation); conditions: HEK-Blue cells overexpressing human TLR8, SEAP reporter, R848 15.9 μM
Sequence (Q9NR97 27-1041): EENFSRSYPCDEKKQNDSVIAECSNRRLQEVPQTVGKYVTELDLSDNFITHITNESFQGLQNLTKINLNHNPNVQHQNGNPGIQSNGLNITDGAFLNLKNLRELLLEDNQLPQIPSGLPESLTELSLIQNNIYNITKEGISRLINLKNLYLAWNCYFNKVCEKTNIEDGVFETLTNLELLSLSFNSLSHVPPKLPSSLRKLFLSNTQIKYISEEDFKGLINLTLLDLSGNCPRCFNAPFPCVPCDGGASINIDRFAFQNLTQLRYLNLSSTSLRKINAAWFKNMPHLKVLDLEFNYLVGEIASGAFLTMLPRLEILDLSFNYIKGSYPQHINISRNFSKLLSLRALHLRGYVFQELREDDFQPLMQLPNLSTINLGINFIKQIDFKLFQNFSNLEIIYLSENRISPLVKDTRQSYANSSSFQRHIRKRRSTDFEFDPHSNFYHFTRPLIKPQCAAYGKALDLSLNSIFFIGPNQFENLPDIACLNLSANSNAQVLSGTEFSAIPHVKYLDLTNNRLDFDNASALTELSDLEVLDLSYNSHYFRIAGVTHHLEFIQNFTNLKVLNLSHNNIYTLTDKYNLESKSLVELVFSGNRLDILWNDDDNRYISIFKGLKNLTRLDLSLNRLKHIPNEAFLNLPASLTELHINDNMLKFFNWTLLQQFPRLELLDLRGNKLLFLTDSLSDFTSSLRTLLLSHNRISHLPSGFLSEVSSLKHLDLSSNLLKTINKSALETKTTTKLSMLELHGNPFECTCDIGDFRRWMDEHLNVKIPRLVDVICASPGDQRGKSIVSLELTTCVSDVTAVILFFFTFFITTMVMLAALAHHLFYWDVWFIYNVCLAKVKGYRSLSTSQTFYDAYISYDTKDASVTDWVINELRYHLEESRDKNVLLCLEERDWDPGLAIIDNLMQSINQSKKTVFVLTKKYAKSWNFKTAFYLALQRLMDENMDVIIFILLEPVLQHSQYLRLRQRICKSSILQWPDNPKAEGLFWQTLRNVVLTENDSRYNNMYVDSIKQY
pIC50: −log10 of the molar value.
recorded metric: pIC50

structure=Cc1nc2cc(-c3[nH]c4ccc(C5CCNCC5)cc4c3C(C)C)cc(C)c2o1 target_under_test="human TLR8 (Homo sapiens, UniProt Q9NR97)" recorded_metric=pIC50 result="6.00 to 7.00"
structure=CNC(=O)CN1CCC(c2ccc3[nH]c(-c4cc(C)c5ncsc5n4)c(C(C)C)c3c2)CC1 target_under_test="human TLR8 (Homo sapiens, UniProt Q9NR97)" recorded_metric=pIC50 result="> 7.00"
structure=CC(C)c1c(-c2ccc3cnnn3c2)[nH]c2ccc(C3CCN(CC(=O)N(C)C)CC3)cc12 target_under_test="human TLR8 (Homo sapiens, UniProt Q9NR97)" recorded_metric=pIC50 result="6.00 to 7.00"
structure=CC(C)c1c(-c2ccc3ncccc3c2)[nH]c2ccc(C3CCNCC3)cc12 target_under_test="human TLR8 (Homo sapiens, UniProt Q9NR97)" recorded_metric=pIC50 result="4.30 to 6.00"
structure=Cc1cc(-c2[nH]c3ccc(C4CCN(C(=O)CCN5CCCC5)CC4)cc3c2C(C)C)cn2nnnc12 target_under_test="human TLR8 (Homo sapiens, UniProt Q9NR97)" recorded_metric=pIC50 result="> 7.00"

Problem: For the compound "Cc1ccnc2[nH]cc(-c3[nH]c4ccc(C5CCNCC5)cc4c3C(C)C)c12" , what pIC50 is on record?
Result: > 7.00

Problem: Ok, now "CC(C)c1c(-c2ccc3c(O)noc3c2)[nH]c2ccc(C3CCNCC3)cc12"
Result: 4.30 to 6.00

Problem: What do you get for "CC(C)c1c(-c2cc(C(C)(C)O)c3nccn3c2)[nH]c2ccc(C3CCN(C(=O)CN(C)C)CC3)cc12" ?
Result: 4.30 to 6.00

Problem: # iterate: "Cc1cc(-c2[nH]c3ccc(C4CCNCC4)cc3c2C(C)C)cc2nccn12"
Result: > 7.00

====

Listed molecules paired with reported IC50
target: human TLR9 (Homo sapiens, UniProt Q9NR96); assay: TLR9 inhibition reporter assay (HEK-Blue cells, SEAP reporter, ODN2006 stimulation); details: HEK-Blue cells overexpressing human TLR9, SEAP reporter, ODN2006 5 nM
Sequence (Q9NR96 26-1032): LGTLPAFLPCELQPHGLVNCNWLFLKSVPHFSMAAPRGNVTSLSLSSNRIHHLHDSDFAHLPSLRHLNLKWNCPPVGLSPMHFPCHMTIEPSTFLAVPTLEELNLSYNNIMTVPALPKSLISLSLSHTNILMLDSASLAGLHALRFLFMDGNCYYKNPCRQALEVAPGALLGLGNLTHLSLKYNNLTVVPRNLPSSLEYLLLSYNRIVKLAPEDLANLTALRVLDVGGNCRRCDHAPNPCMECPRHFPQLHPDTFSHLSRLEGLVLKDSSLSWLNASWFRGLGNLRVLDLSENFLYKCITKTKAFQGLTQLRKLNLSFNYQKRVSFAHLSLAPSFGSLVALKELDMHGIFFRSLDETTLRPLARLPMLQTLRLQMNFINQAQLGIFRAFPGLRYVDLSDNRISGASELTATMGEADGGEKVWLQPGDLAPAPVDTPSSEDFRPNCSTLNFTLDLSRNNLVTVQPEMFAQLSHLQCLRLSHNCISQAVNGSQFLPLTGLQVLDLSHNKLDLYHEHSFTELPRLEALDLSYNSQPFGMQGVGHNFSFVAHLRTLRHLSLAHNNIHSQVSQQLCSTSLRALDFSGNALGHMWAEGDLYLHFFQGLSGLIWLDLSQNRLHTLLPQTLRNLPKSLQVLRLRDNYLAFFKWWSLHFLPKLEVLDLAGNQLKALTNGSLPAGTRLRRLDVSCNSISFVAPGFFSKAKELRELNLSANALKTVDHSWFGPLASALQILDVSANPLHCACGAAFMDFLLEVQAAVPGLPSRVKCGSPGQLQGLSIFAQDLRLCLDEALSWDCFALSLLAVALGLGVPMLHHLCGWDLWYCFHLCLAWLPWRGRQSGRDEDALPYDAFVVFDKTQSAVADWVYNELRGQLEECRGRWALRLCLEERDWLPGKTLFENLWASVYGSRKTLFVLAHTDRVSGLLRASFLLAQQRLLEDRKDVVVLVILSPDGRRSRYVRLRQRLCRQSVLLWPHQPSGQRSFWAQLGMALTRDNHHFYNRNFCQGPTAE

molecule="CC(C)c1c(-c2cc(C(F)(F)F)c3nccn3c2)[nH]c2ccc(C3CCN(C(C)C)CC3)cc12 [Example 942]" result="1000 to 50000 nM"
molecule="CNC(=O)CN1CCC(c2ccc3[nH]c(-c4cc(CO)c5nccn5c4)c(C(C)C)c3c2)CC1 [Example 341]" result="100 to 1000 nM"
molecule="COc1c[nH]c2nccc(-c3[nH]c4ccc(C5CCNCC5)cc4c3C)c12 [Example 213]" result="1000 to 50000 nM"

Problem: Using the record for Cc1cc(-c2[nH]c3ccc(C4CCNCC4)cc3c2C(C)C)cc2cncn12 [Example 164] , report its IC50.
Result: 100 to 1000 nM

Problem: How about Cc1cc(-c2[nH]c3ccc(C4CCN(C(=O)CN(C)C)CC4)cc3c2C(C)C)c2ccccc2n1 [Example 533] ?
Result: 100 to 1000 nM

Problem: Now consider CC(C)c1c(-c2ccnc3[nH]ncc23)[nH]c2ccc(C3CCN(Cc4cn5ccccc5n4)CC3)cc12 [Example 862] and answer again.
Result: 1000 to 50000 nM

Problem: Param item: Cc1c(-c2[nH]c3ccc(C4CCN(CC(C)(C)O)CC4)cc3c2C(C)C)cn2ccnc2c1Cl [Example 772]
Result: 1000 to 50000 nM

Problem: CC(C)c1c(-c2ccn3nccc3c2)[nH]c2ccc(C3CCN(C(=O)CN(C)C)CC3)cc12 [Example 542] , same question.
Result: 1000 to 50000 nM

Problem: // query: COc1nc(-c2[nH]c3ccc(C4CCN(CC(=O)N(C)C)CC4)cc3c2C(C)C)cn2ncnc12 [Example 292]
Result: 1000 to 50000 nM

Problem: Field entry: CNC(=O)CN1CCC(c2ccc3[nH]c(-c4cc(C)c5nccn5n4)c(C(C)C)c3c2)CC1 [Example 448]
Result: 1000 to 50000 nM

Problem: What about this molecule? CC(C)c1c(-c2ccnc3[nH]ncc23)[nH]c2ccc(C3CCN(C(=O)CN4CCCN(C)CC4)CC3)cc12 [Example 577]
Result: 100 to 1000 nM

Problem: Follow-up item: CCc1c(C)c(-c2[nH]c3ccc(C4CCN(CC(=O)NC)CC4)cc3c2C(C)C)cn2ccnc12 [Example 418]
Result: 1000 to 50000 nM

Problem: Entry to check: CC(C)c1c(-c2cc(C(F)(F)F)c3nccn3c2)[nH]c2ccc(C3CCN(C(=O)CN(C)C)CC3)cc12 [Example 507]
Result: 100 to 1000 nM

Problem: What do you have for Cc1ccnc2[nH]cc(-c3[nH]c4ccc(C5CCN(C6CCOCC6)CC5)cc4c3C(C)C)c12 [Example 690] ?
Result: 1000 to 50000 nM

====

biological target: UniProt Q9NR97; test: TLR8 inhibition reporter assay (HEK-Blue cells, SEAP reporter, R848 stimulation); details: HEK-Blue cells overexpressing human TLR8, SEAP reporter, R848 15.9 μM
pIC50: −log10 of the molar value.
recorded metric: pIC50

Some compounds with known pIC50 results, for comparison:
compound="CC(=O)N1CCC(c2ccc3[nH]c(-c4ccnc5[nH]ncc45)c(C(C)C)c3c2)CC1 [Example 592]" target_under_test="UniProt Q9NR97" result="6.00 to 7.00"
compound="CC(C)c1c(-c2nc3c(N)ncnc3[nH]2)[nH]c2ccc(C3CCNCC3)cc12 [Example 8]" target_under_test="UniProt Q9NR97" result="< 5.51"

Problem: I am curious: what pIC50 value has been reported for CC(C)c1c(-c2ccc3ncsc3n2)[nH]c2ccc(C3CCNCC3)cc12 [Example 209] ?
Result: > 7.00

Problem: Proceed to CCc1c(-c2ccnc3[nH]ncc23)[nH]c2ccc(C3CCN(Cc4cc(C)n[nH]4)CC3)cc12 [Example 900]
Result: > 7.00

====

Target: human TLR7 (Homo sapiens, UniProt Q9NYK1)
Sequence (Q9NYK1 27-1049): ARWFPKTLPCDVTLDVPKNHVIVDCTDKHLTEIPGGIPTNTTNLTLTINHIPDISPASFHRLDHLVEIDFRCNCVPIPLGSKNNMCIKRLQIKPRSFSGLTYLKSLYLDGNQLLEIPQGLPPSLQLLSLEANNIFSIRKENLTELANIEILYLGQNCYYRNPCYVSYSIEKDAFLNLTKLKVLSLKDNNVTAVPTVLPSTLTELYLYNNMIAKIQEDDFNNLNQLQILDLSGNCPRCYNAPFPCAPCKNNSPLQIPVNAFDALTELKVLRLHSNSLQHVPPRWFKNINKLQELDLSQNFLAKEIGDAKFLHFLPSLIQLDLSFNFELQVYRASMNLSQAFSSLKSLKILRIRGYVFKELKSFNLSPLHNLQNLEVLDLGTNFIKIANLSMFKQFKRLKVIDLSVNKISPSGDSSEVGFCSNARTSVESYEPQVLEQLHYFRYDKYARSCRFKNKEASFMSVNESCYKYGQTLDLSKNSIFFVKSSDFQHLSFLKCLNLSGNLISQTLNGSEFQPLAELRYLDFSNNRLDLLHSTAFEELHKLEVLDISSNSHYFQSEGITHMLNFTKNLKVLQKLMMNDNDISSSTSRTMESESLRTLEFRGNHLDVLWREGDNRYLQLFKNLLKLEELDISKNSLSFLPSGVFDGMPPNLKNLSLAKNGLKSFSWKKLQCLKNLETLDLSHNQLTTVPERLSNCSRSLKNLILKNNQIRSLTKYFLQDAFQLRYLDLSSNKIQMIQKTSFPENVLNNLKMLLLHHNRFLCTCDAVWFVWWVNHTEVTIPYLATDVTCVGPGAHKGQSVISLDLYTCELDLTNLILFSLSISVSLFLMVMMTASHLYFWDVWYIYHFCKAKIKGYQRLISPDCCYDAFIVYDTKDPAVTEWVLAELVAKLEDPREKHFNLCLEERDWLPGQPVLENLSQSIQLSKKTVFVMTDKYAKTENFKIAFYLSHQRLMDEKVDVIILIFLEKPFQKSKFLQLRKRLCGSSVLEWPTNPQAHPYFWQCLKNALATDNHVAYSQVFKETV
Test: TLR7 inhibition reporter assay (HEK-Blue cells, SEAP reporter, gardiquimod stimulation)
Details: HEK-Blue cells overexpressing human TLR7, SEAP reporter, gardiquimod 7.5 μM
Source text: TLR7/8/9 Inhibition Reporter Assays HEK-Blue™-cells (Invivogen) overexpressing human TLR7, TLR8 or TLR9 receptors were used for screening inhibitors of these receptors using an inducible SEAP (secreted embryonic alkaline phosphatase) reporter gene under the control of the IFN-β minimal promoter fused to five NF-κB and AP-1-binding sites. […]
Counter-ions that a name gives are not always drawn.
recorded metric: IC50

molecule=CC(C)c1c(-c2ccn3nncc3c2)[nH]c2ccc(C3CCN(C(=O)CN(C)C)CC3)cc12 target_under_test="human TLR7 (Homo sapiens, UniProt Q9NYK1)" result="< 100 nM"
molecule="CNCCN1CCC(c2ccc3[nH]c(-c4ccnc5[nH]ncc45)c(C(C)C)c3c2)CC1 [Example 650, dihydrochloride]" target_under_test="human TLR7 (Homo sapiens, UniProt Q9NYK1)" result="< 100 nM"
molecule=Cc1c(-c2ccnc3[nH]cc(N)c23)[nH]c2ccc(C3CCNCC3)cc12 target_under_test="human TLR7 (Homo sapiens, UniProt Q9NYK1)" result="1000 to 50000 nM"
molecule=CC(C)c1c(-c2cn(C)c3ncccc23)[nH]c2ccc(C3CCN(C4CCOCC4)CC3)cc12 target_under_test="human TLR7 (Homo sapiens, UniProt Q9NYK1)" result="< 100 nM"
molecule=Cc1cc(-c2[nH]c3ccc(C4CCN(S(=O)(=O)CCN(C)C)CC4)cc3c2C(C)C)cn2nnnc12 target_under_test="human TLR7 (Homo sapiens, UniProt Q9NYK1)" result="< 100 nM"
molecule=CCc1c(-c2ccnc3[nH]ncc23)[nH]c2ccc(C3CCN(Cc4cocn4)CC3)cc12 target_under_test="human TLR7 (Homo sapiens, UniProt Q9NYK1)" result="100 to 1000 nM"

From here, focus on the item given below.
Problem: Can you share its IC50? I mean this molecule: "CC(C)c1c(-c2cc(F)c3nccn3c2)[nH]c2ccc(C3CCN(C(=O)CN(C)C)CC3)cc12"
Result: < 100 nM
